Test system: HL-1
Assay: relative cell viability (CellTiter-Glo) vs DMSO control (% of DMSO control); higher = more viable cells
Conditions: oxygen condition: normoxia 72 h; 200 nM
Where a name gives a salt, the structure may show the parent alone.
QUANTITY_KIND: relative cell viability

[[record]]
compound = "N=C(N)NC(=N)N1CCOCC1 [Moroxydine]"
assay_value = 101

[[record]]
compound = "N=C(N)N/N=C/c1c(Cl)cccc1Cl [Guanabenz acetate]"
assay_value = 99.6

[[record]]
compound = "CC1=C(C(=O)OC(C)C)C(c2cccc([N+](=O)[O-])c2)C(C(=O)OC2CN(C(c3ccccc3)c3ccccc3)C2)=C(N)N1 (centres undefined) [Azelnidipine]"
assay_value = 110

[[record]]
compound = "COc1cc(C(=O)NC2CCCNC2)cc(OC)c1OC (centres undefined) [Troxipide]"
assay_value = 110

[[record]]
compound = "CC(C)NC[C@H](O)COc1ccc(CCOCC2CC2)cc1 [Levobetaxolol HCl]"
assay_value = 106

[[record]]
compound = "CO[C@H]1O[C@@H]2O[C@@]3(C)CC[C@H]4[C@H](C)CC[C@@H]([C@H]1C)[C@@]24OO3 [Artemether]"
assay_value = 102

[[record]]
compound = "c1ccc2c(CC3=NCCN3)cccc2c1 [Naphazoline hydrochloride]"
assay_value = 102

[[record]]
compound = "CCOC(=O)c1ncn2c1CN(C)C(=O)c1cc(F)ccc1-2 [Flumazenil]"
assay_value = 98.5

[[record]]
compound = "CCCC(=O)[O-].[Na+] [Sodium butyrate]"
assay_value = 99.2


====

Test system: HL-1
Experiment: relative cell viability (CellTiter-Glo) vs DMSO control (% of DMSO control); higher = more viable cells
Conditions: oxygen condition: hypoxia 48 h (1% O2) + reoxygenation 24 h; 200 nM
Where a name gives a salt, the structure may show the parent alone.
QUANTITY_KIND: relative cell viability

[[record]]
molecule = "OC[C@@H](O)[C@@H](O)[C@H](O)[C@H](O)CO"
assay_value = 86.9

[[record]]
molecule = "CN1C2CCCC1CC(NC(=O)c1nn(C)c3ccccc13)C2 (centres undefined) [Granisetron HCl]"
assay_value = 102

[[record]]
molecule = "N#C[C@@H]1CCCN1C(=O)CNC12CC3CC(CC(O)(C3)C1)C2"
assay_value = 104

[[record]]
molecule = "COc1ccc2cc1Oc1ccc(cc1)C[C@H]1c3c(cc4c(c3Oc3cc5c(cc3OC)CCN(C)[C@@H]5C2)OCO4)CCN1C"
assay_value = 91.7


====

System: HL-1
Experiment: relative cell viability (CellTiter-Glo) vs DMSO control (% of DMSO control); higher = more viable cells
Conditions: oxygen condition: normoxia 72 h; 1000 nM
Where a name gives a salt, the structure may show the parent alone.
QUANTITY_KIND: relative cell viability

[[record]]
compound = "CN(CCOc1ccc(NS(C)(=O)=O)cc1)CCc1ccc(NS(C)(=O)=O)cc1 [Dofetilide]"
assay_value = 106

[[record]]
compound = "O=P(O)(O)C(O)(Cc1cccnc1)P(=O)(O)O [Risedronic acid]"
assay_value = 105

[[record]]
compound = "CCCCC[C@H](O)/C=C/[C@H]1[C@H](O)CC(=O)[C@@H]1CCCCCCC(=O)O [Alprostadil]"
assay_value = 111

[[record]]
compound = "NS(=O)(=O)c1cc(Cl)c(Cl)c(S(N)(=O)=O)c1 [Dichlorphenamide]"
assay_value = 103

[[record]]
compound = "CC(C)NCC(O)COc1ccc(CCOCC2CC2)cc1 (stereo not drawn) [Betaxolol]"
assay_value = 99.6

[[record]]
compound = "CCCCOc1cc(C(=O)OCCN(CC)CC)ccc1N [Oxybuprocaine HCl]"
assay_value = 113

[[record]]
compound = "Nc1[nH]cnc2ncnc1-2 [Adenine hydrochloride]"
assay_value = 103

[[record]]
compound = "CNCC[C@@H](Oc1ccccc1C)c1ccccc1 [Atomoxetine HCl]"
assay_value = 103

[[record]]
compound = "CNCCC(Oc1ccc(C(F)(F)F)cc1)c1ccccc1 (stereo not drawn) [Fluoxetine HCl]"
assay_value = 106

[[record]]
compound = "Nc1ncnc2c1ncn2[C@@H]1O[C@H](CO)[C@@H](O)[C@H]1O [Adenosine]"
assay_value = 111

[[record]]
compound = "C#Cc1cccc(Nc2ncnc3cc(OCCOC)c(OCCOC)cc23)c1 [Erlotinib HCl]"
assay_value = 112

[[record]]
compound = "Nc1cc(N2CCCCC2)nc(N)[n+]1[O-] [Minoxidil]"
assay_value = 112

[[record]]
compound = "NC(=O)c1ncn([C@@H]2O[C@H](CO)[C@@H](O)[C@H]2O)c1N [Acadesine]"
assay_value = 110

[[record]]
compound = "CC(C)NCC(O)COc1ccc(COCCOC(C)C)cc1 (stereo not drawn) [Bisoprolol]"
assay_value = 85.4

[[record]]
compound = "CCc1c2c(nc3ccc(OC(=O)N4CCC(N5CCCCC5)CC4)cc13)-c1cc3c(c(=O)n1C2)COC(=O)[C@]3(O)CC [Irinotecan]"
assay_value = 64.9

[[record]]
compound = "CCC[C@H](N[C@@H](C)C(=O)N1[C@H](C(=O)O)C[C@@H]2CCCC[C@@H]21)C(=O)OCC [Perindopril Erbumine]"
assay_value = 111

[[record]]
compound = "CCOC(=O)c1ccc(OC(=O)CCCCCNC(=N)N)cc1 [Gabexate mesylate]"
assay_value = 109

[[record]]
compound = "C=C[C@]1(C)C[C@@H](OC(=O)CS[C@@H]2C[C@H]3CC[C@@H](C2)N3C)[C@]2(C)[C@H](C)CC[C@]3(CCC(=O)[C@H]32)[C@@H](C)[C@@H]1O [Retapamulin]"
assay_value = 89.2

[[record]]
compound = "CCCN[C@H]1CCc2nc(N)sc2C1 [Pramipexole dihydrochloride monohydrate]"
assay_value = 101

[[record]]
compound = "CCCC(=O)Nc1ccc(OCC(O)CNC(C)C)c(C(C)=O)c1 (stereo not drawn) [Acebutolol HCl]"
assay_value = 106

[[record]]
compound = "C=C1/C(=C\\C=C2/CCC[C@]3(C)[C@@H]([C@H](C)CCCC(C)(C)O)CC[C@@H]23)C[C@@H](O)C[C@@H]1O [Calcitriol]"
assay_value = 93.6

[[record]]
compound = "CC1=NN(c2ccc(C)c(C)c2)C(=O)/C1=N\\Nc1cccc(-c2cccc(C(=O)O)c2)c1O [Eltrombopag]"
assay_value = 111

[[record]]
compound = "O=C(c1cc(Cc2n[nH]c(=O)c3ccccc23)ccc1F)N1CCN(C(=O)C2CC2)CC1 [Olaparib]"
assay_value = 70.1

[[record]]
compound = "CC[C@@H](CO)NCCN[C@@H](CC)CO [Ethambutol HCl]"
assay_value = 102

[[record]]
compound = "N[C@@H](Cc1cc(I)c(Oc2ccc(O)c(I)c2)c(I)c1)C(=O)O [Liothyronine Sodium]"
assay_value = 108

[[record]]
compound = "CCCC(=O)O[C@]1(C(=O)COC(C)=O)CC[C@H]2[C@@H]3C[C@H](F)C4=CC(=O)C=C[C@]4(C)[C@@]3(F)[C@@H](O)C[C@@]21C [Difluprednate]"
assay_value = 94.4

[[record]]
compound = "O=C(O)c1cn(C2CC2)c2cc(N3CCNCC3)c(F)cc2c1=O [Ciprofloxacin]"
assay_value = 107

[[record]]
compound = "CCCc1ncc(C[n+]2ccccc2C)c(N)n1 [Amprolium HCl]"
assay_value = 110

[[record]]
compound = "CC(S)C(=O)NCC(=O)O (stereo not drawn) [Tiopronin]"
assay_value = 101

[[record]]
compound = "C=C1c2cccc(O)c2C(=O)C2=C(O)[C@]3(O)C(=O)C(C(N)=O)=C(O)[C@@H](N(C)C)[C@@H]3[C@@H](O)[C@H]12 [Methacycline hydrochloride]"
assay_value = 103

[[record]]
compound = "COc1cc2c(cc1OC)CC(=O)N(CCCN(C)C[C@H]1Cc3cc(OC)c(OC)cc31)CC2 [Ivabradine HCl]"
assay_value = 102

[[record]]
compound = "COc1cc2nc(N3CCN(C(=O)c4ccco4)CC3)nc(N)c2cc1OC [Prazosin HCl]"
assay_value = 106

[[record]]
compound = "CC(=O)OCC(=O)[C@@]1(O)CC[C@H]2[C@@H]3CCC4=CC(=O)CC[C@]4(C)[C@H]3C(=O)C[C@@]21C [Cortisone acetate]"
assay_value = 93.2


====

Test system: HL-1
Assay: relative cell viability (CellTiter-Glo) vs DMSO control (% of DMSO control); higher = more viable cells
Settings: oxygen condition: normoxia 72 h; 40 nM
QUANTITY_KIND: relative cell viability

[[record]]
compound = "C[C@@H](O)[C@H]1C(=O)N2C(C(=O)OCOC(=O)C(C)(C)C)=C(SC3CN(C4=NCCS4)C3)[C@H](C)[C@H]12"
quantity_kind = "relative cell viability"
assay_value = 96.9

[[record]]
compound = "C=CCNC(N)=S"
quantity_kind = "relative cell viability"
assay_value = 106

[[record]]
compound = "COc1cc([C@@H]2c3cc4c(cc3[C@@H](O[C@@H]3O[C@@H]5CO[C@@H](C)O[C@H]5[C@H](O)[C@H]3O)[C@H]3COC(=O)[C@H]23)OCO4)cc(OC)c1O [Etoposide]"
quantity_kind = "relative cell viability"
assay_value = 91.3

[[record]]
compound = "CCCc1nc(C(C)(C)O)c(C(=O)OCc2oc(=O)oc2C)n1Cc1ccc(-c2ccccc2-c2nnn[nH]2)cc1"
quantity_kind = "relative cell viability"
assay_value = 97

[[record]]
compound = "CCCC(CCC)C(=O)O[C@H]1C[C@H]2CC[C@@H](C1)[N+]2(C)C [Anisotropine Methylbromide]"
quantity_kind = "relative cell viability"
assay_value = 96.3

[[record]]
compound = "C=CC[N+]1([C@H]2C[C@H]3[C@@H]4CC[C@H]5C[C@H](O)[C@@H](N6CCOCC6)C[C@]5(C)[C@H]4CC[C@]3(C)[C@H]2OC(C)=O)CCCC1 [Rocuronium bromide]"
quantity_kind = "relative cell viability"
assay_value = 104


Cited source: the supplement of paper PMC8371130
